Target: 2P-ERK2 (active ERK2) (Rattus norvegicus)
Sequence (P63086 whole entry): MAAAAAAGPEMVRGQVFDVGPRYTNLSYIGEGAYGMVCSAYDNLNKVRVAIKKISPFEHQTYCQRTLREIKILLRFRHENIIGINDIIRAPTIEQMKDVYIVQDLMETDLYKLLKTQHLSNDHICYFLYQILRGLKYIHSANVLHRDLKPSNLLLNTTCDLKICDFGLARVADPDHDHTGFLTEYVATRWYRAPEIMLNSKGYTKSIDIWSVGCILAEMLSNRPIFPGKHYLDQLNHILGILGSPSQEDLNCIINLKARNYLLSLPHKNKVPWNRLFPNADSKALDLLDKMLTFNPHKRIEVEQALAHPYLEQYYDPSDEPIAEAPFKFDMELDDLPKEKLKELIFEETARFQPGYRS
Experiment: NMR
Type: binding
Settings: estimated, slow/intermediate exchange prevented accurate determination

molecule | Kd
Nc1ncnc2c1ncn2[C@@H]1O[C@H](COP(=O)(O)OP(=O)(O)NP(=O)(O)O)[C@@H](O)[C@H]1O [AMP-PNP, adenosine 5′-(β,γ-imido)triphosphate] | 200 to 500 µM

----------
Molecular target: 0P-ERK2 (inactive ERK2) (Rattus norvegicus)
Sequence (P63086 whole entry): as above
Assay: NMR
Assay type: binding
Conditions: estimated, slow/intermediate exchange prevented accurate determination
pKd: −log10 of the molar value.

compound | systemUnderTest | pKd
Nc1ncnc2c1ncn2[C@@H]1O[C@H](COP(=O)(O)OP(=O)(O)NP(=O)(O)O)[C@@H](O)[C@H]1O [AMP-PNP, adenosine 5′-(β,γ-imido)triphosphate] | 0P-ERK2 (inactive ERK2) (Rattus norvegicus) | 3.30 to 3.70
